assay_target: Receptor-type tyrosine-protein kinase FLT3 (Homo sapiens, UniProt P36888, D835Y)
experimental_protocol: Inhibition of human recombinant N-terminal GST-tagged FLT3 D835Y mutant expressed in baculovirus infected Sf21 insect cells using abltide as substrate
readout_type: IC50 (nM)
Just the number in nM, nothing appended.

Looking up CN1C/C=C/CCOc2cccc(c2)-c2ccnc(n2)Nc2cccc(c2)C1 [ZOTIRACICLIB] , I see its IC50 listed as 21

* * *

assay_target: CDK6/cyclin D3 (Homo sapiens, UniProt Q00534)
Sequence (P30281 whole entry): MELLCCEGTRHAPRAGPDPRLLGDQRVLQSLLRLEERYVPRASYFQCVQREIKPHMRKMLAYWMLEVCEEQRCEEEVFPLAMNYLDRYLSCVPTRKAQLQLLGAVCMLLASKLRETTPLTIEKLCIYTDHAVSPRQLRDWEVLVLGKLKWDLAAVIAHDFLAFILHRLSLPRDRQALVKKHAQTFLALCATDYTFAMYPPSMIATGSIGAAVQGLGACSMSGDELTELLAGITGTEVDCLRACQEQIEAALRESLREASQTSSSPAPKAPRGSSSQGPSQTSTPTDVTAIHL
Sequence (Q00534 whole entry): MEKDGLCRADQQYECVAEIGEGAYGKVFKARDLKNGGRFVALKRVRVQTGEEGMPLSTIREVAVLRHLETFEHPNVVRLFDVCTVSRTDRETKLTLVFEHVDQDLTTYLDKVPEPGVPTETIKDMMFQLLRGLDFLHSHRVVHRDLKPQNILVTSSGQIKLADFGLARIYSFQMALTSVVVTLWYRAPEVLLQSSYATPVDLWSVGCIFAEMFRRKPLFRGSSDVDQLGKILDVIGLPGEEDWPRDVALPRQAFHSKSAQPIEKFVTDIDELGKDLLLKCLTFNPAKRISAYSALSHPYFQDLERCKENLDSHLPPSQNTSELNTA
experimental_protocol: Inhibition of CDK6/cyclin D3 (unknown origin)
pIC50: −log10 of the molar value.
readout_type: pIC50

Looking up COCCN1CCN(Cc2ccc(-c3n[nH]c4c3C(=O)c3c(NC(=O)NN5CCOCC5)cccc3-4)cc2)CC1 [RGB-286638] , I see its pIC50 listed as 7.26 to 8.70
